- MEASURED_ON: FGFR1 (Homo sapiens (Human), UniProt P11362)
- Sequence (P11362 22-822): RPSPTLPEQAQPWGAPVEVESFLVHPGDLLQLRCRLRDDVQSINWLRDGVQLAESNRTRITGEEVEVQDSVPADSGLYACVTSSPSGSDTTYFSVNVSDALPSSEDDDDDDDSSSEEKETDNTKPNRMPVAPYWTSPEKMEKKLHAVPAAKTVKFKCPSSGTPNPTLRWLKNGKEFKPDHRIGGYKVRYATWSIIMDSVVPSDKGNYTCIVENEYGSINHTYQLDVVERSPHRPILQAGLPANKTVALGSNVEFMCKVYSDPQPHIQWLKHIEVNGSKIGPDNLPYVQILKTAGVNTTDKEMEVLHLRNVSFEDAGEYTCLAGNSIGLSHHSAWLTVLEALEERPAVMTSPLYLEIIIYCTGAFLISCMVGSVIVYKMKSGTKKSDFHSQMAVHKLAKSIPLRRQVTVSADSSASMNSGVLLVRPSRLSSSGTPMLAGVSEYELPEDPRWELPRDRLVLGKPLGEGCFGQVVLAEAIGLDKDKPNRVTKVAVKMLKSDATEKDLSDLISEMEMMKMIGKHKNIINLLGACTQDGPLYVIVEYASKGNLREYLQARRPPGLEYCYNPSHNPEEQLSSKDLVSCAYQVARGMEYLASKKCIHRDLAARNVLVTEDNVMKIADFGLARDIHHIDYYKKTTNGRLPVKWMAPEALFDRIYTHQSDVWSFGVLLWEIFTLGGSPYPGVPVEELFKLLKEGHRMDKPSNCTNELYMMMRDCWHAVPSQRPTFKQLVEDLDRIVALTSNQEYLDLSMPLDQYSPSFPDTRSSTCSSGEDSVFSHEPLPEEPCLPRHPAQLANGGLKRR
- TEST_METHOD_NOTES: Kinase assay, binding constants (Kd), kinase-tagged T7 phage, qPCR
ASSAY_ENDPOINT: Kd

Request: Form: Entry = COc1cc2[nH]nc(-c3ccc(N4CC5(C4)CN(S(C)(=O)=O)C5)nc3)c2cc1O[C@H](C)c1c(Cl)cncc1Cl | System = FGFR1 (Homo sapiens (Human), UniProt P11362) | Kd = ____
Result: 1 to 20 nM

Request: Also COC(=O)N1CC2(C1)CN(c1ccc(-c3n[nH]c4ccc(O[C@H](C)c5c(Cl)cncc5Cl)cc34)cn1)C2 ?
Result: 1 to 20 nM

###

- MEASURED_ON: FGFR3 (V555M) (Homo sapiens (Human), UniProt P22607, V555M)
- Sequence (P22607 23-806 V555M): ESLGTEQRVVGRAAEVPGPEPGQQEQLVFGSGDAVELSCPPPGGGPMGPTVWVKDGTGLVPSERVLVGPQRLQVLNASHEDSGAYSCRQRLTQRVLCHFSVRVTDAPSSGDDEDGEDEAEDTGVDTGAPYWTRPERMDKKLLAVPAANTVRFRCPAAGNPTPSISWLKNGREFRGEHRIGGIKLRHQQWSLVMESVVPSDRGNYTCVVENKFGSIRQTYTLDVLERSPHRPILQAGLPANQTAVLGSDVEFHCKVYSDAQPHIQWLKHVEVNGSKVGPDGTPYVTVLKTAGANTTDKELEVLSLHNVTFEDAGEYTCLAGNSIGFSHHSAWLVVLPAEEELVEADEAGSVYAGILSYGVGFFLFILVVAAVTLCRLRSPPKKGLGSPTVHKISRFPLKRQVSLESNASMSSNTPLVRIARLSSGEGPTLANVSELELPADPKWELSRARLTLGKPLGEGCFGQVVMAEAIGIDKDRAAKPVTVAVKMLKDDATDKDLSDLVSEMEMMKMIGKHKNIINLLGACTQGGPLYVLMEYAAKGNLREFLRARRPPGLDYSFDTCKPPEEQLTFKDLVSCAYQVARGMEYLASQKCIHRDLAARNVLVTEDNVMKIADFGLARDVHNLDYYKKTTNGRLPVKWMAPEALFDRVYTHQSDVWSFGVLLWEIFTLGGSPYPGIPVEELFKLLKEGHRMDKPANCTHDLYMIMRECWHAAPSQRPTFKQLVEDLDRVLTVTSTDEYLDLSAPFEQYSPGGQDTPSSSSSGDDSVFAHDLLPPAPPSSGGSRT
- TEST_METHOD_NOTES: Kinase assay, binding constants (Kd), kinase-tagged T7 phage, qPCR
- MEASUREMENT_PARAMETERS: V555M mutant
ASSAY_ENDPOINT: Kd

Below are worked cases with known answers.
MOLECULE	Kd
C[C@@H](Oc1cc2c(-c3cnc(N4CC5(C4)CN(S(C)(=O)=O)C5)c(F)c3)n[nH]c2cc1Cl)c1c(Cl)cnnc1Cl [Example 264]	1 to 20 nM
Cc1cnnc(C)c1[C@@H](C)Oc1ccc2[nH]nc(-c3cnc(N4CC[C@@H](C(C)(C)O)C4)c(C#N)c3)c2c1 [Example 307]	1 to 20 nM
C[C@@H](Oc1ccc2[nH]nc(-c3ccc(N4CC5(CCNC5)C4)nc3)c2c1)c1c(Cl)cncc1Cl [Example 164]	1 to 20 nM
C[C@@H](Oc1ccc2[nH]nc(-c3ccc(N4CC5(CCN(S(C)(=O)=O)CC5)C4)nc3)c2c1)c1c(Cl)cncc1Cl [Example 111]	1 to 20 nM

Here is the next item to consider.
Request: Entry COC(=O)N1CC2(C1)CN(c1ccc(-c3n[nH]c4ccc(O[C@@H](C)c5c(Cl)cnc(F)c5Cl)cc34)cn1)C2 [Example 198] has what Kd?
Result: 20 to 100 nM

###

- MEASURED_ON: UniProtKB P21802
- Sequence (P21802 22-821): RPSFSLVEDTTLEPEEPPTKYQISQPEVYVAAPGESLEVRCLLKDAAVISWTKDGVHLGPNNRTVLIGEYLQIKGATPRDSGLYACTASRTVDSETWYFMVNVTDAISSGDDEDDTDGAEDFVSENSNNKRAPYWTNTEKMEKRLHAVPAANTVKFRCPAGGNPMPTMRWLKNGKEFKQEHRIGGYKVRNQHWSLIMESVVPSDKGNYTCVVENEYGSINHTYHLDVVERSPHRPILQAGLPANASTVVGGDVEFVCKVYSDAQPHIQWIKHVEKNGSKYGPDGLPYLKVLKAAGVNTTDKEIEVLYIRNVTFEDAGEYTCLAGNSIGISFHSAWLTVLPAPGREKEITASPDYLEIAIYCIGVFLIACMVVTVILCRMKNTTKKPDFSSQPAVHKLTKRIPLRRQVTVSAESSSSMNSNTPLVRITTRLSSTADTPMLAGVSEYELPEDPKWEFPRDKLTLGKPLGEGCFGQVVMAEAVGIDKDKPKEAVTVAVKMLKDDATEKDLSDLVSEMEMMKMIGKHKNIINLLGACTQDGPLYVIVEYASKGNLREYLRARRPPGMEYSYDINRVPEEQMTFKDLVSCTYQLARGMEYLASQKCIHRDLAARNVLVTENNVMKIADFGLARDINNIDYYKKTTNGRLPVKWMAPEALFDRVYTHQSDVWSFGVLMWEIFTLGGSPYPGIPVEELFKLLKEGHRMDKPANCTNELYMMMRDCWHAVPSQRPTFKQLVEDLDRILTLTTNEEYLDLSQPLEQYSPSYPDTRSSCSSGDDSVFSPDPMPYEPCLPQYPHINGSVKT
- TEST_METHOD_NOTES: Kinase assay, binding constants (Kd), kinase-tagged T7 phage, qPCR
# Kd per entry

COMPOUND	MEASURED_ON	Kd
COc1cc2[nH]nc(-c3cnc(N4CC5CC(C4)N5CC(C)(C)O)c(C)c3)c2cc1O[C@H](C)c1c(C)cnnc1C [Example 214]	UniProtKB P21802	1 to 20 nM

Here is the next item to consider.
Request: Entry C[C@@H](Oc1ccc2[nH]nc(-c3ccc(N4CC5(CCN(C)CC5)OC4=O)nc3)c2c1)c1c(Cl)cncc1Cl [Example 75] has what Kd?
Result: 1 to 20 nM

###

# Kd per entry
- MEASURED_ON: FGFR3 (Homo sapiens (Human), UniProt P22607)
- Sequence (P22607 23-806): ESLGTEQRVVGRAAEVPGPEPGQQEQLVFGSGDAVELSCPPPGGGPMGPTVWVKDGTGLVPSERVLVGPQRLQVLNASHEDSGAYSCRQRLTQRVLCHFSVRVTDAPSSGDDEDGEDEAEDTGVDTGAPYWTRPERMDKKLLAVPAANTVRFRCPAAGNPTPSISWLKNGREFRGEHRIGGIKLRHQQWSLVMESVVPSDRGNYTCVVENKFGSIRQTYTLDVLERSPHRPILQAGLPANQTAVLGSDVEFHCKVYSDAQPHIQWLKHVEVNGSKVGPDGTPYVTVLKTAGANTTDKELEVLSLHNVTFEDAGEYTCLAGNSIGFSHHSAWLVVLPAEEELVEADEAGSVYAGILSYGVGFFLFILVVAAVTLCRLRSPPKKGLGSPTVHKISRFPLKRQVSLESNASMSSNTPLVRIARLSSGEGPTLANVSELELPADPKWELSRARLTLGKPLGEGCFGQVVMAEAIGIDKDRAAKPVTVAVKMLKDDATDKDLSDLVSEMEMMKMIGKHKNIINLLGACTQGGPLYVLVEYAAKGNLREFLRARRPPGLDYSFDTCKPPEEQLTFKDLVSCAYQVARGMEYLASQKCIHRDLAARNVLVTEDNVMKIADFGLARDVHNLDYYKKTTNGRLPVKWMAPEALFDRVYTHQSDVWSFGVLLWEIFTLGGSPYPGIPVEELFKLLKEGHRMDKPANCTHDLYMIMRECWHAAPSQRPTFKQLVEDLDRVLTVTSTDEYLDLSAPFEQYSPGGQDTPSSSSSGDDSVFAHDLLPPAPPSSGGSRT
- TEST_METHOD_NOTES: Kinase assay, binding constants (Kd), kinase-tagged T7 phage, qPCR

Below are worked cases with known answers.
MOLECULE	Kd
C[C@@H](Oc1ccc2[nH]nc(-c3cnc(N4CCC5(CC4)CCS(=O)(=O)C5)c(F)c3)c2c1)c1c(Cl)cncc1Cl [Example 77]	1 to 20 nM
C[C@H](Oc1ccc2[nH]nc(-c3cnc(N4CC(O)C4)c(C#N)c3)c2c1)c1c(Cl)cnc(F)c1Cl [Example 291]	> 300 nM
CCOC(=O)N1CCC2(CC1)CN(c1ncc(-c3n[nH]c4ccc(O[C@H](C)c5c(Cl)cncc5Cl)cc34)cn1)C2 [Example 126]	1 to 20 nM
COC(=O)N1CCN(c2ccc(-c3n[nH]c4ccc(O[C@H](C)c5c(Cl)cncc5Cl)cc34)cn2)CC1 [Example 7]	1 to 20 nM
COC(=O)N1CCCC2(C1)CN(c1ncc(-c3n[nH]c4ccc(O[C@H](C)c5c(Cl)cncc5Cl)cc34)cn1)C2 [Example 138]	1 to 20 nM

Request: Entry C[C@@H](Oc1ccc2[nH]nc(-c3cnc(N4CC5(CN(CC(F)F)C5)C4)c(C#N)c3)c2c1)c1c(Cl)cncc1Cl [Example 330] has what Kd?
Result: 20 to 100 nM

Request: Also Cc1cnnc(C)c1[C@@H](C)Oc1ccc2[nH]nc(-c3cnc(N4CC[C@H](O)C4)c(C#N)c3)c2c1 [Example 306] ?
Result: 20 to 100 nM

Request: Also Cc1cnnc(C)c1[C@@H](C)Oc1ccc2[nH]nc(-c3ccc(N4CC5(CCOC5)C4)nc3)c2c1 [Example 206] ?
Result: 1 to 20 nM

###

- MEASURED_ON: FGFR3 (V555M) (Homo sapiens (Human), UniProt P22607, V555M)
- TEST_METHOD_NOTES: Kinase assay, binding constants (Kd), kinase-tagged T7 phage, qPCR
- MEASUREMENT_PARAMETERS: V555M mutant; given as a number
ASSAY_ENDPOINT: Kd (nM)
Express your answer in nM, writing the number without its unit.

Request: Form: Entry = Cc1cc2[nH]nc(-c3cnc(N4CC5(C4)CN(S(C)(=O)=O)C5)c(F)c3)c2cc1O[C@H](C)c1c(Cl)cnc(C)c1Cl [Example 273] | System = FGFR3 (V555M) (Homo sapiens (Human), UniProt P22607, V555M) | Kd = ____
Result: 1.8

###

- MEASURED_ON: FGFR4 (Homo sapiens (Human), UniProt P22455)
- Sequence (P22455 22-802): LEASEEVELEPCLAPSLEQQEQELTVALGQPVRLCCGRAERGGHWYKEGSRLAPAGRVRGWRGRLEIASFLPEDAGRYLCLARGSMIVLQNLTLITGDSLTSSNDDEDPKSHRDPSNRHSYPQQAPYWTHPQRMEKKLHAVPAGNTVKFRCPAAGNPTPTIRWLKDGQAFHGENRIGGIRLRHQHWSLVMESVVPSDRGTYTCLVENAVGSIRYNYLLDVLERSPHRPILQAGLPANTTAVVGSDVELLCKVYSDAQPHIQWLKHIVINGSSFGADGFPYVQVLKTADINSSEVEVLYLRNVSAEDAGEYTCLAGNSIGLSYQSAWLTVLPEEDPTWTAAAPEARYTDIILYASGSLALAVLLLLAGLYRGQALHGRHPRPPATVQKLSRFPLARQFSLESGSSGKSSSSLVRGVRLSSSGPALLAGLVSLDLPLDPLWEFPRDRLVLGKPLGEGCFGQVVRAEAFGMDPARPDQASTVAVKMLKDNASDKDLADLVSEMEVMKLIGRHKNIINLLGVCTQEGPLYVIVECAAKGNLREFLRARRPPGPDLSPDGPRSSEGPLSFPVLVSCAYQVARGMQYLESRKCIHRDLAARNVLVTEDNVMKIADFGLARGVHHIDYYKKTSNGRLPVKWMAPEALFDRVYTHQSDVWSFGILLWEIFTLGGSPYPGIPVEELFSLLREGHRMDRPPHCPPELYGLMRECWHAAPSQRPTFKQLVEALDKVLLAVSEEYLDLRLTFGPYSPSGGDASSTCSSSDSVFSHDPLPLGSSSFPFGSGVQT
- TEST_METHOD_NOTES: Kinase assay, binding constants (Kd), kinase-tagged T7 phage, qPCR
- Method: Kinase-tagged T7 phage strains were prepared in an E. coli host derived from the BL21 strain. E. coli were grown to log-phase and infected with T7 phage and incubated with shaking at 32° C. until lysis. The lysates were centrifuged and filtered to remove cell debris. […] Test compounds were prepared as 111λ stocks in 10000 DMS0. Kds were determined using an 11-point 3-fold compound dilution series with three DMSO control points. […] The kinase concentration in the eluates was measured by qPCR. […]
# Kd per entry

Below are worked cases with known answers.
COMPOUND	Kd
C[C@@H](Oc1ccc2[nH]nc(-c3ccc(N4CC5(CCOC5)C4)nc3)c2c1)c1c(Cl)cnc(F)c1Cl [Example 204]	20 to 100 nM
C[C@@H](Oc1ccc2[nH]nc(-c3ccc(N4CCC5(CCCO5)CC4)nc3)c2c1)c1c(Cl)cncc1Cl [Example 26]	1 to 20 nM
COc1cc2[nH]nc(-c3ccc(N4CCCC4)nc3)c2cc1O[C@H](C)c1c(C)cnnc1C [Example 315]	1 to 20 nM

Request: Entry COc1cc2[nH]nc(-c3cnc(N4CC(O)C4)c(C#N)c3)c2cc1O[C@H](C)c1c(Cl)cncc1Cl [Example 326] has what Kd?
Result: 1 to 20 nM

###

- MEASURED_ON: FGFR1-BCR Ba/F3 cells (Homo sapiens)
- Sequence (P11362 22-822 limits assumed, change not shown): as the sequence (P11362 22-822) above
- TEST_METHOD_NOTES: Ba/F3 cell viability assay (CellTiter-Glo 2.0), FGFR1-BCR Ba/F3
- Assay type: cell-based
- MEASUREMENT_PARAMETERS: read-out: Ba/F3 Cells FGFR1 (IC50 nM), 48 hours, Cell Titer Glo 2.0
- Source text: Experimental Purpose: Recombinant kinase fusions are transduced into parental Ba/F3, which becomes dependent upon this constitutive kinase activity for IL3-independent survival. Inhibition of kinase activity leads to cell death, which is monitored using CellTiter-Glo® 2.0 (Promega) which measures intracellular ATP concentration that in turn serves as a marker for viability. FGFR1-BCR Ba/F3 and FGFR3-BAIAP2L1 Ba/F3 were obtained from Advanced Cellular Dynamics (Seattle, WA) […]
ASSAY_ENDPOINT: IC50

Below are worked cases with known answers.
MOLECULE	IC50
C[C@@H](Oc1ccc2[nH]nc(-c3cnc(N4CCC5(CC4)C(=O)NCCN5C)c(F)c3)c2c1)c1c(Cl)cncc1Cl	20 to 100 nM
C[C@@H](Oc1ccc2[nH]nc(-c3cnc(N4CCC5(CCNC5=O)CC4)nc3)c2c1)c1c(Cl)cncc1Cl	> 300 nM
Cc1ncc(Cl)c([C@@H](C)Oc2ccc3[nH]nc(-c4cnn(C5CCN(C6CCC6)CC5)c4)c3c2)c1Cl	> 300 nM

Here is the next item to consider.
Request: Entry CC(Oc1ccc2[nH]nc(-c3ccc(N4CC5(C4)CN(S(C)(=O)=O)C5)nc3)c2c1)c1c(Cl)ccnc1Cl (stereo not shown) has what IC50?
Result: 100 to 300 nM

###

- MEASURED_ON: FGFR1 (Homo sapiens (Human))
- TEST_METHOD_NOTES: Kinase assay, binding constants (Kd), kinase-tagged T7 phage, qPCR
ASSAY_ENDPOINT: Kd

Below are worked cases with known answers.
COMPOUND	ASSAY_ENDPOINT	VAL
Cc1cnnc(C)c1[C@@H](C)Oc1ccc2[nH]nc(-c3cnc(N4CC5(CCS(=O)(=O)C5)C4)nc3)c2c1	Kd	20 to 100 nM
Cc1ncc(Cl)c([C@@H](C)Oc2ccc3[nH]nc(-c4ccc(N5CC6(CCC6)C5)nc4)c3c2)c1Cl	Kd	> 300 nM
Cc1ncc(Cl)c([C@@H](C)Oc2ccc3[nH]nc(-c4ccc(N5CCC[C@H]5CO)nc4)c3c2)c1Cl	Kd	1 to 20 nM
C[C@@H](Oc1ccc2[nH]nc(-c3cnc(Cl)nc3)c2c1)c1c(Cl)cncc1Cl	Kd	20 to 100 nM
C[C@@H](Oc1cc2c(-c3cnc(N4CC5(CCCN(S(C)(=O)=O)C5)C4)c(C#N)c3)n[nH]c2cc1F)c1c(Cl)cncc1Cl	Kd	100 to 300 nM
CCOC(=O)N1CC2(C1)CN(c1ccc(-c3n[nH]c4ccc(O[C@H](C)c5c(Cl)cncc5Cl)cc34)cn1)C2	Kd	20 to 100 nM

Request: Entry COc1cc2[nH]nc(-c3ccc(N4CC5(C4)CN(S(C)(=O)=O)C5)nc3)c2cc1O[C@H](C)c1c(Cl)cnnc1Cl has what Kd?
Result: 1 to 20 nM

Request: Also Cc1cnnc(C)c1[C@@H](C)Oc1ccc2[nH]nc(-c3ccc(N4CCN5CCC[C@H]5C4)nc3)c2c1 ?
Result: 1 to 20 nM

Request: Also CCS(=O)(=O)N1CC2(CN(c3ncc(-c4n[nH]c5ccc(O[C@H](C)c6c(Cl)cnc(C)c6Cl)cc45)cn3)C2)C1 ?
Result: 100 to 300 nM

Request: Also COc1cc2[nH]nc(-c3ccc(N4CC5(C4)CN(S(C)(=O)=O)C5)nc3)c2cc1O[C@@H](C)c1c(C)cnnc1C ?
Result: 100 to 300 nM

Request: Also C[C@@H](Oc1ccc2[nH]nc(-c3ccc(C4CCNCC4)nc3)c2c1)c1c(Cl)cncc1Cl ?
Result: 1 to 20 nM

Request: Also C[C@@H](Oc1ccc2[nH]nc(-c3cnc(N4CC5(C4)CN(S(C)(=O)=O)C5)c(C#N)c3)c2c1)c1c(Cl)cncc1Cl ?
Result: 20 to 100 nM

Request: Also C[C@@H](Oc1ccc2[nH]nc(-c3ccc(N4CC(C#N)C4)nc3)c2c1)c1c(Cl)cncc1Cl ?
Result: 1 to 20 nM

Request: Also C[C@@H](Oc1ccc2[nH]nc(-c3ccc(N4CC5(CCN5C)C4)nc3)c2c1)c1c(Cl)cncc1Cl ?
Result: 1 to 20 nM

Request: Also C[C@@H](Oc1ccc2[nH]nc(-c3cnc(N4CCCNCC4)nc3)c2c1)c1c(Cl)cncc1Cl ?
Result: 1 to 20 nM

Request: Also C[C@@H](Oc1ccc2[nH]nc(-c3cnc(N4CC[C@H](O)C4)c(C#N)c3)c2c1)c1c(Cl)cncc1Cl ?
Result: 20 to 100 nM

Request: Also COc1c(O[C@H](C)c2c(C)cnnc2C)ccc2[nH]nc(-c3ccc(N4CC5(C4)CN(S(C)(=O)=O)C5)nc3)c12 ?
Result: > 300 nM

Request: Also Cc1ncc(Cl)c([C@@H](C)Oc2ccc3[nH]nc(-c4cnn(C5CCN(C6COC6)CC5)c4)c3c2)c1Cl ?
Result: 20 to 100 nM

Request: Also C[C@@H](Oc1ccc2[nH]nc(-c3ccc(N4CC5(CCN(S(C)(=O)=O)C5)C4)nc3)c2c1)c1c(Cl)cncc1Cl [Example 163] ?
Result: 1 to 20 nM

Request: Also Cc1ncc(Cl)c([C@@H](C)Oc2ccc3[nH]nc(-c4ccc(N5CCN6C(=O)CCC6C5)nc4)c3c2)c1Cl (stereo partly shown) ?
Result: 20 to 100 nM

Request: Also C[C@@H](Oc1ccc2[nH]nc(-c3cnc(N4CCC5(CC4)CNC(=O)C5)nc3)c2c1)c1c(Cl)cncc1Cl ?
Result: 20 to 100 nM

Request: Also COc1cc2[nH]nc(-c3ccc(N4CCC4)nc3)c2cc1O[C@H](C)c1c(C)cnnc1C ?
Result: 1 to 20 nM

Request: Also C[C@@H](Oc1ccc2[nH]nc(-c3ccc(N4CCOCC4)cn3)c2c1)c1c(Cl)cncc1Cl ?
Result: 1 to 20 nM
